experiment: Pharmacokinetic (PK) analysis in rats; assay type: in vivo, Sprague Dawley (SD) rats; conditions: Sprague-Dawley, rat, plasma, po; SD rats, single intragastric administration, 5 mg/kg; read-out: Half-Time t1/2 (converted)
Reported half-life values for a set of molecules
MEASURED PARAMETER: half-life (h)

- CO[C@H]1CCN(c2cc(NC(=O)N3CCCc4cc(CN5CCOCC5=O)c(C=O)nc43)ncc2C#N)C1: 1.15
- CO[C@@H]1CCN(c2cc(NC(=O)N3CCCc4cc(CN5CCCCOC5=O)c(C=O)nc43)ncc2C#N)C1: 1.27
- CO[C@H]1CCN(c2cc(NC(=O)N3CCCc4cc(CN5CCOC5=O)c(C=O)nc43)ncc2C#N)C1: 1.05
- CO[C@@H]1CCN(c2cc(NC(=O)N3CCCc4cc(CN5CCOC5=O)c(C=O)nc43)ncc2C#N)C1: 1.17
- CO[C@H]1COCC1Nc1cc(NC(=O)N2CCCc3cc(CN4C(=O)OCC4C)c(C=O)nc32)ncc1C#N (stereo partly drawn): 2.55
- CO[C@@H]1CCC[C@H]1Nc1cc(NC(=O)N2CCCc3cc(CN4CCOCC4=O)c(C=O)nc32)ncc1C#N: 0.88
- COCCNc1cc(NC(=O)N2CCCc3cc(CN4CCN(C5CC5)CC4=O)c(C=O)nc32)ncc1C#N: 1.02
- COCCNc1cc(NC(=O)N2CCCc3cc(CN4CCCOCC4=O)c(C=O)nc32)ncc1C#N: 0.9
- CO[C@H]1CCC[C@@H]1Nc1cc(NC(=O)N2CCCc3cc(CN4CCOCC4=O)c(C=O)nc32)ncc1C#N: 0.86
- CO[C@@H]1CCN(c2cc(NC(=O)N3CCCc4cc(CN5C(=O)OC[C@@H]5C)c(C=O)nc43)ncc2C#N)C1: 1.38
- CO[C@@H]1CCC1Oc1cc(NC(=O)N2CCCc3cc(CN4CCOCC4=O)c(C=O)nc32)ncc1C#N (stereo partly drawn): 0.75
- COC[C@@H](C)Oc1cc(NC(=O)N2CCCc3cc(CN4C(=O)OCC45CC5)c(C=O)nc32)ncc1C#N: 1.06
- COc1ccccc1Nc1cc(NC(=O)N2CCCc3cc(CN4CCOCC4=O)c(C=O)nc32)ncc1C#N: 1.16
- COCC1(Nc2cc(NC(=O)N3CCCc4cc(CN5CCOCC5=O)c(C=O)nc43)ncc2C#N)CC1: 1.16
- CO[C@H]1COCC1Oc1cc(NC(=O)N2CCCc3cc(CN4CCOCC4=O)c(C=O)nc32)ncc1C#N (stereo partly drawn): 0.88

###

Reported AUC(0-t) values for a set of compounds
assay: Pharmacokinetic (PK) analysis in rats; format: in vivo, Sprague Dawley (SD) rats; details: Sprague-Dawley, rat, plasma, po; SD rats, single intragastric administration, 5 mg/kg; read-out: Area Under Curve AUC0-t
MEASURED PARAMETER: AUC(0-t)

- CO[C@H]1CCN(c2cc(NC(=O)N3CCCc4cc(CN5CCOCC5=O)c(C=O)nc43)ncc2C#N)C1 [Example 51]: 3720 ng·h/mL
- CO[C@H]1CCC[C@@H]1Nc1cc(NC(=O)N2CCCc3cc(CN4CCOCC4=O)c(C=O)nc32)ncc1C#N [Example 59]: 1260 ng·h/mL
- CO[C@H]1COCC1Nc1cc(NC(=O)N2CCCc3cc(CN4C(=O)OCC4C)c(C=O)nc32)ncc1C#N (stereo partly shown) [Example 46]: 1530 ng·h/mL
- CO[C@@H]1CCN(c2cc(NC(=O)N3CCCc4cc(CN5C(=O)OC[C@@H]5C)c(C=O)nc43)ncc2C#N)C1 [Example 38]: 2400 ng·h/mL
- COCCNc1cc(NC(=O)N2CCCc3cc(CN4CCCOCC4=O)c(C=O)nc32)ncc1C#N [Example 6]: 9120 ng·h/mL
- COCCNc1cc(NC(=O)N2CCCc3cc(CN4CCN(C5CC5)CC4=O)c(C=O)nc32)ncc1C#N [Example 65]: 2910 ng·h/mL
- CO[C@H]1CCN(c2cc(NC(=O)N3CCCc4cc(CN5CCN(C)CC5=O)c(C=O)nc43)ncc2C#N)C1 [Example 63]: 4990 ng·h/mL

###

assay: Pharmacokinetic (PK) analysis in rats; format: in vivo, Sprague Dawley (SD) rats; details: Sprague-Dawley, rat, plasma, po; SD rats, single intragastric administration, 5 mg/kg; read-out: Plasma Concentration Cmax
Reported Cmax values for a set of compounds
MEASURED PARAMETER: Cmax

• CO[C@H]1CCC1Oc1cc(NC(=O)N2CCCc3cc(CN4CCOCC4=O)c(C=O)nc32)ncc1C#N (stereo partly drawn) = 2.81 µg/mL
• COCCSc1cc(NC(=O)N2CCCc3cc(CN4CCOCC4=O)c(C=O)nc32)ncc1C#N = 1.2 µg/mL
• COC[C@@H](C)Nc1cc(NC(=O)N2CCCc3cc(CN4CCCCOC4=O)c(C=O)nc32)ncc1C#N = 3.38 µg/mL
• CO[C@H]1CCN(c2cc(NC(=O)N3CCCc4cc(CN5CCN(C)CC5=O)c(C=O)nc43)ncc2C#N)C1 = 2.06 µg/mL
• COCCNc1cc(NC(=O)N2CCCc3cc(CN4CCCOCC4=O)c(C=O)nc32)ncc1C#N = 3.5 µg/mL
• CONc1cc(NC(=O)N2CCCc3cc(CN4CCOCC4=O)c(C=O)nc32)ncc1C#N = 1.29 µg/mL
• COC[C@@H](C)Oc1cc(NC(=O)N2CCCc3cc(CN4C(=O)OCC45CC5)c(C=O)nc32)ncc1C#N = 2.14 µg/mL
• CO[C@H]1CCN(c2cc(NC(=O)N3CCCc4cc(CN5CCOC5=O)c(C=O)nc43)ncc2C#N)C1 = 1.56 µg/mL
• COc1ccccc1Nc1cc(NC(=O)N2CCCc3cc(CN4CCOCC4=O)c(C=O)nc32)ncc1C#N = 2.06 µg/mL
• CO[C@H]1CCC[C@@H]1Nc1cc(NC(=O)N2CCCc3cc(CN4CCOCC4=O)c(C=O)nc32)ncc1C#N = 2.06 µg/mL
• N#Cc1cnc(NC(=O)N2CCCc3cc(CN4CCOCC4=O)c(C=O)nc32)cc1S[C@H]1CCOC1 = 2.33 µg/mL
• COCCNc1cc(NC(=O)N2CCCc3cc(CN4CCCCOC4=O)c(C=O)nc32)ncc1C#N = 2.31 µg/mL
• CO[C@H]1COCC1Oc1cc(NC(=O)N2CCCc3cc(CN4CCOCC4=O)c(C=O)nc32)ncc1C#N (stereo partly drawn) = 2.84 µg/mL
• CO[C@@H]1CCN(c2cc(NC(=O)N3CCCc4cc(CN5C(=O)OC[C@@H]5C)c(C=O)nc43)ncc2C#N)C1 = 2.66 µg/mL
• CO[C@H]1COCC1Nc1cc(NC(=O)N2CCCc3cc(CN4CCOCC4=O)c(C=O)nc32)ncc1C#N (stereo partly drawn) = 1.88 µg/mL

###

Reported pIC50 values for a set of compounds
tested on: Hep 3B cells; assay: Inhibition of Hep 3B cell proliferation (CellTiter-Glo); assay type: cell-based; settings: Homo sapiens, Hep3B; Hep 3B cell proliferation, 72 hours, CellTiter-Glo; read-out: Hep 3B IC50
pIC50: −log10 of the molar value.
MEASURED PARAMETER: pIC50

- COCCNc1cc(NC(=O)N2CCCc3cc(CN4CCN(C5CC5)CC4=O)c(C=O)nc32)ncc1C#N: 8.37
- CC1COC(=O)N1Cc1cc2c(nc1C=O)N(C(=O)Nc1cc(S[C@@H]3CCOC3)c(C#N)cn1)CCC2 (some centres unmarked): 7.94
- COC[C@@H](C)Oc1cc(NC(=O)N2CCCc3cc(CN4C(=O)OCC45CC5)c(C=O)nc32)ncc1C#N: 8.17
- CO[C@H]1COCC1Nc1cc(NC(=O)N2CCCc3cc(CN4CCOCC4=O)c(C=O)nc32)ncc1C#N (some centres unmarked): 8.48
- COC[C@@H](C)Oc1cc(NC(=O)N2CCCc3cc(CN4CCOC4=S)c(C=O)nc32)ncc1C#N: 7.88
- CO[C@H]1CCOCC1Nc1cc(NC(=O)N2CCCc3cc(CN4CCOCC4=O)c(C=O)nc32)ncc1C#N (some centres unmarked): 8.21
- N#Cc1cnc(NC(=O)N2CCCc3cc(CN4CCCCOC4=O)c(C=O)nc32)cc1S[C@H]1CCOC1: 8.10
- COc1ccccc1Nc1cc(NC(=O)N2CCCc3cc(CN4CCOCC4=O)c(C=O)nc32)ncc1C#N: 9.05
- COCCNc1cc(NC(=O)N2CCCc3cc(CN4CCCN(C)CC4=O)c(C=O)nc32)ncc1C#N: 8.85
- CO[C@@H]1CCN(c2cc(NC(=O)N3CCCc4cc(CN5CCN(C)CC5=O)c(C=O)nc43)ncc2C#N)C1: 8.28
- COCCNc1cc(NC(=O)N2CCCc3cc(CN4C(=O)OCC45CC5)c(C=O)nc32)ncc1C#N: 8.09
- CO[C@H]1COCC1Nc1cc(NC(=O)N2CCCc3cc(CN4C(=O)OCC4C)c(C=O)nc32)ncc1C#N (some centres unmarked): 7.90
- COC[C@H](C)Nc1cc(NC(=O)N2CCCc3cc(CN4CCCCOC4=O)c(C=O)nc32)ncc1C#N: 8.34
- CO[C@H]1CCN(c2cc(NC(=O)N3CCCc4cc(CN5CCN(C)CC5=O)c(C=O)nc43)ncc2C#N)C1: 7.86
- C[C@H]1COC(=O)N1Cc1cc2c(nc1C=O)N(C(=O)Nc1cc(S[C@H]3CCOC3)c(C#N)cn1)CCC2: 7.85
- CO[C@H]1COCC1Oc1cc(NC(=O)N2CCCc3cc(CN4CCOCC4=O)c(C=O)nc32)ncc1C#N (some centres unmarked): 7.78
- COC[C@@H](C)Nc1cc(NC(=O)N2CCCc3cc(CN4CCCCOC4=O)c(C=O)nc32)ncc1C#N: 9.22
- COc1ncccc1CNc1cc(NC(=O)N2CCCc3cc(CN4CCOCC4=O)c(C=O)nc32)ncc1C#N: 7.99
- CC1OCCC1Sc1cc(NC(=O)N2CCCc3cc(CN4CCOCC4=O)c(C=O)nc32)ncc1C#N (centres unmarked): 7.88
- CONc1cc(NC(=O)N2CCCc3cc(CN4CCOCC4=O)c(C=O)nc32)ncc1C#N: 7.76
- CO[C@H]1COCC1Oc1cc(NC(=O)N2CCCc3cc(CN4C(=O)OC[C@@H]4C)c(C=O)nc32)ncc1C#N (some centres unmarked): 8.00
- COCCNc1cc(NC(=O)N2CCCc3cc(CN4C(=O)COCC45CC5)c(C=O)nc32)ncc1C#N: 8.07
- CO[C@@H]1COCC1Nc1cc(NC(=O)N2CCCc3cc(CN4CCCCOC4=O)c(C=O)nc32)ncc1C#N (some centres unmarked): 8.55

These data points were gathered from patent US11667631B2.
